src = patent US10577363B2

Target Under Test: UniProtKB Q9H7B4
Test Name: SMYD3 biochemical assay (SPA, 3H-SAM methylation of MEKK2 protein substrate)
Stated Conditions: read-out: SMYD3 Biochem IC50*
The following compounds are shown together with reported IC50 values.
Hi! Could you send only the number? It should be in nM, unit omitted.

Example results:
O=C(N[C@H]1C[C@H]2CC[C@@H](C1)N2S(=O)(=O)N1CC2CCC(C1)N2CCO)c1cc(C2CC2)on1; 10.9
CN1CCC([C@@H](Cc2ccccc2)S(=O)(=O)N2[C@@H]3CC[C@H]2C[C@@H](NC(=O)c2cc(C4CC4)on2)C3)CC1; 13.9
C[C@@H](NC1CCN(S(=O)(=O)N2CC[C@H](NC(=O)c3cc(C4CC4)on3)C[C@@H]2C)CC1)c1ccccc1; 14.3
C[C@H](NC1CCN(S(=O)(=O)N2CC[C@H](NC(=O)c3cc(C4CC4)on3)C[C@@H]2C)CC1)c1ccccc1; 17.1

Shift focus to the following entry.
For record "O=C(N[C@H]1C[C@H]2CC[C@@H](C1)N2S(=O)(=O)N1CCC(N2CCCC2)CC1)c1cc(C2CC2)on1" the listed IC50 is 17.1

====

Target Under Test: SMYD3 (Homo sapiens (Human))
Test Name: SMYD3 biochemical assay (SPA, 3H-SAM methylation of MEKK2 protein substrate)
Stated Conditions: Table 2A; read-out: SMYD3 Biochem IC50
Observation Type: IC50 (nM)
Hi! Could you send only the number? It should be in nM, unit omitted.

C[C@H]1C[C@@H](NC(=O)c2cc(C3CC3)on2)CCN1S(=O)(=O)CCCCN(C)C [compound 576]; 8.1
C[C@H]1C[C@@H](NC(=O)c2cc(C3CC3)on2)CCN1S(=O)(=O)C1CCN(C)CC1 [compound 574]; 8

For record CC(C)CN1CCC(CS(=O)(=O)N2CC[C@@H](NC(=O)c3cc(C4CC4)on3)C[C@H]2C)CC1 [compound 611] the listed IC50 is 20

====

Target Under Test: SMYD3 (Homo sapiens (Human), UniProt Q9H7B4)
Test Name: SMYD3 biochemical assay (SPA, 3H-SAM methylation of MEKK2 protein substrate)
Stated Conditions: Table 1A; IC50 values are an average of n = 1 to n = 50; read-out: SMYD3 Biochem IC50
The following compounds are shown together with reported pIC50 values.
// pIC50 is dimensionless: -log10 of concentration (M)

Example results:
C[C@H]1C[C@@H](NC(=O)c2cc(C3CC3)on2)CCN1S(=O)(=O)c1ccc(C#N)nc1 [compound 513]; 5.96
O=C(Nc1ccc(S(=O)(=O)N2[C@@H]3CC[C@H]2C[C@H](NC(=O)c2cc(C4CC4)on2)C3)cc1)c1ccncc1 [compound 489]; 5.27
C[C@H]1C[C@@H](NC(=O)c2cc(C3CC3)on2)CCN1S(=O)(=O)CCCNCc1ccccc1 [Cpd. No. 500]; 8.09
O=C(N[C@H]1C[C@H]2CC[C@@H](C1)N2S(=O)(=O)CC1CCNCC1)c1cc(C2CC2)on1 [compound 526]; 9.00
C[C@@H]1C[C@@H](NC(=O)c2cc(C3CC3)on2)CCN1S(=O)(=O)c1ccc(NCCN2CCOCC2)nc1 [compound 506]; 5.40

For record CCN(CC)S(=O)(=O)N1CC[C@H](NC(=O)c2cc(C3CC3)on2)C[C@@H]1C [compound 518] the listed pIC50 is 5.43

For record O=C(N[C@H]1C[C@H]2CC[C@@H](C1)N2S(=O)(=O)CCCN1CCOCC1)c1cc(C2CC2)on1 [compound 496] the listed pIC50 is 6.79
